Every entry's value here was drawn from ChEMBL document CHEMBL1938352.

# tested_target: Acyl-CoA desaturase 1 (Rattus norvegicus, UniProt P07308)
# protocol_notes: Inhibition of SCD-1 activity in rat liver microsomes assessed as reduction in [1-14C] stearoyl CoA desaturation by scintillation counting
# Parameters: species or system Microsome
test_readout: IC50 (nM)
Answer format: numeric, nM implied, no suffix.

q: Dear colleague, I am looking for the recorded IC50 of the following molecule: O=C(O)Cn1nnc(-c2cnc(N3CC4(C3)CN(c3cc(F)ccc3Cl)C4)s2)n1
a: 43

q: Now consider O=C(O)Cn1nnc(-c2cnc(N3CC4(CCN(c5cc(F)ccc5Cl)CC4)C3)s2)n1 and answer again.
a: 128

q: Can you check O=C(O)Cn1nnc(-c2cnc(N3CCC4(CC3)CN(c3cc(F)ccc3Cl)C4)s2)n1 next?
a: 36

====

Kindly supply the reported bioavailability values for the records listed here.
# protocol_notes: Oral bioavailability in C57BL/6 mouse at 10 mg/kg
# Assay type: ADME, organism-based, C57BL6
# condition_summary: in vivo
Number only, in %; omit the unit.

q: bioavailability for O=C(O)Cn1nnc(-c2cnc(N3CCN(c4cc(F)ccc4Cl)CC3)s2)n1 ?
a: 15

q: Please answer likewise for O=C(O)Cn1nnc(-c2cc(N3CC4CN(c5cc(F)ccc5Cl)CC4C3)no2)n1 (configuration not stated)
a: 24

====

Provide the reported Kp at 6 h of each item.
# protocol_notes: Ratio of drug uptake in liver to plasma of C57BL/6 mouse at 10 mg/kg, po measured 6 hrs post dosing
# Format: ADME, organism-based, C57BL6
# Parameters: dose 10 mg/kg, route oral
Lab note: record the figure alone, no unit after it.

q: Please report the recorded Kp at 6 h for O=C(O)Cn1nnc(-c2cnc(N3CCN(c4cc(F)ccc4Cl)CC3)s2)n1 .
a: 40

q: Similarly, O=C(O)Cn1nnc(-c2cc(N3CCC(Oc4cc(F)ccc4Br)CC3)no2)n1 ?
a: 90

====

# protocol_notes: Drug level in plasma of C57BL/6 mouse at 10 mg/kg, po measured 6 hrs post dosing
# Assay type: ADME, organism-based, C57BL6
# Design: dose 10 mg/kg, route oral
# condition_summary: read-out: Drug uptake
Please go through the items and note down their concentration at 6 h.
// return numeric value only (unit: µM, not printed)

q: Returns the measured concentration at 6 h for the input molecule. Input: O=C(O)Cn1nnc(-c2cc(N3CCC(Oc4cc(F)ccc4Br)CC3)no2)n1 [MK-8245]
a: 0.03

q: Ok, now O=C(O)Cn1nnc(-c2cnc(N3CCN(c4cc(F)ccc4Cl)CC3)s2)n1
a: 0.22

====

# tested_target: Acyl-CoA desaturase 1 (Rattus norvegicus, UniProt P07308)
# Sequence (P07308 whole entry): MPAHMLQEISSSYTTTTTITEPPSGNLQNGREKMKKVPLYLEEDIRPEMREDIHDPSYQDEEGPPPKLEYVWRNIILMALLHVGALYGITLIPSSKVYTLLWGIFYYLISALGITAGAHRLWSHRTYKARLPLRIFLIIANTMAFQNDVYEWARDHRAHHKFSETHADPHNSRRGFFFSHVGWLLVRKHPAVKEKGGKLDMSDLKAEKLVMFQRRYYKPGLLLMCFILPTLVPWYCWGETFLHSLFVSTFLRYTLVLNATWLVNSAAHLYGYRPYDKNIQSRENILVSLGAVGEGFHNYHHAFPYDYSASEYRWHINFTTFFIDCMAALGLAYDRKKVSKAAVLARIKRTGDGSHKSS
# protocol_notes: Inhibition of SCD-1 activity in rat liver microsomes assessed as reduction in [1-14C] stearoyl CoA desaturation by scintillation counting
# Parameters: species or system Microsome
test_readout: IC50

q: Consider the molecule shown here: O=C(O)Cn1nnc(-c2cnc(N3CC4CN(c5cc(F)ccc5Cl)CC4C3)s2)n1 (stereo not given) What is its recorded IC50?
a: 34 nM

q: O=C(O)Cn1nnc(-c2cc(N3CC4CN(c5cc(F)ccc5Cl)CC4C3)no2)n1 (stereo not given) ?
a: 24 nM

q: And the next one, O=C(O)Cn1nnc(-c2cnc(N3CCN(c4cc(F)ccc4Cl)CC3)s2)n1 ?
a: 28 nM

q: Follow-up entry: O=C(O)Cn1nnc(-c2nnc(N3CC4CN(c5cc(F)ccc5Cl)CC4C3)s2)n1 (stereo not given)
a: 59 nM

q: Next molecule: O=C(O)Cn1nnc(-c2cnc(N3C[C@@H]4C[C@H]3CN4c3cc(F)ccc3Cl)s2)n1
a: 29 nM

====

# tested_target: Stearoyl-CoA desaturase (Homo sapiens, UniProt O00767)
# Sequence (O00767 whole entry): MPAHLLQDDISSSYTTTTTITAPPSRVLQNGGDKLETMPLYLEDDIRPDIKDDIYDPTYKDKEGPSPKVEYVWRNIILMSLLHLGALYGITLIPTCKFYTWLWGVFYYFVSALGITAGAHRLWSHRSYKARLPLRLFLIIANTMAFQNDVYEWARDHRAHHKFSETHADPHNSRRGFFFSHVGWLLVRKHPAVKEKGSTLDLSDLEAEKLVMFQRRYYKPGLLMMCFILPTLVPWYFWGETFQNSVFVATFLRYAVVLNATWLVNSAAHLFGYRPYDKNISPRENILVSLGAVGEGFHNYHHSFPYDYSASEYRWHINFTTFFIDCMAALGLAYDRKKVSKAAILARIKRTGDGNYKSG
# protocol_notes: Inhibition of SCD-1 activity in organic anion transporting polypeptides-deficient human HepG2 cells assessed as reduction in [1-14C] stearoyl CoA desaturation by scintillation counting
Threshold check on IC50: strictly below 10 µM is y; on or above 10 µM is n.

q: Input O=C(O)Cn1nnc(-c2cnc(N3CCN(c4cc(F)ccc4Cl)CC3)s2)n1 ; condition: IC50 strictly below 10 µM. Does it hold?
a: y

q: Item: O=C(O)Cn1nnc(-c2cnc(N3C[C@@H]4C[C@H]3CN4c3cc(F)ccc3Cl)s2)n1
a: y

q: Try O=C(O)Cn1nnc(-c2cnc(N3CC4(CCN(c5cc(F)ccc5Cl)CC4)C3)s2)n1 next.
a: n

q: // query: O=C(O)Cn1nnc(-c2cnc(N3CCC4(CC3)CN(c3cc(F)ccc3Cl)C4)s2)n1
a: n

q: O=C(O)Cn1nnc(-c2cnc(N3CC4CN(c5cc(F)ccc5Cl)CC4C3)s2)n1 (stereo not drawn) , same question.
a: n

q: Cool, now O=C(O)Cn1nnc(-c2cnc(N3CC4(C3)CN(c3cc(F)ccc3Cl)C4)s2)n1
a: n

q: For O=C(O)Cn1nnc(-c2nnc(N3CC4CN(c5cc(F)ccc5Cl)CC4C3)s2)n1 (stereo not drawn) then?
a: n

====

# tested_target: Acyl-CoA desaturase 1 (Rattus norvegicus)
# protocol_notes: Inhibition of SCD-1 activity in rat hepatocytes expressing organic anion transporting polypeptides assessed as reduction in [1-14C] stearoyl CoA desaturation by scintillation counting
# Format: cell-based, Hepatocyte
test_readout: IC50 (nM)
Give your result in nM as a bare value.

q: API: value(readout= IC50, system= Acyl-CoA desaturase 1 (Rattus norvegicus), query= O=C(O)Cn1nnc(-c2nnc(N3CC4CN(c5cc(F)ccc5Cl)CC4C3)s2)n1 (stereo not drawn) )
a: 300

q: Further, for O=C(O)Cn1nnc(-c2cnc(N3CC4(C3)CN(c3cc(F)ccc3Cl)C4)s2)n1 ?
a: 103

q: Repeat for the following compound: O=C(O)Cn1nnc(-c2cnc(N3CC4(CCN(c5cc(F)ccc5Cl)CC4)C3)s2)n1
a: 506

q: Same again, this time with O=C(O)Cn1nnc(-c2cnc(N3CCN(c4cc(F)ccc4Cl)CC3)s2)n1
a: 134

q: What about this compound? O=C(O)Cn1nnc(-c2cnc(N3CC4CN(c5cc(F)ccc5Cl)CC4C3)s2)n1 (stereo not drawn)
a: 233

q: Queued: O=C(O)Cn1nnc(-c2cnc(N3C[C@@H]4C[C@H]3CN4c3cc(F)ccc3Cl)s2)n1
a: 176

q: Query O=C(O)Cn1nnc(-c2cnc(N3CCC4(CC3)CN(c3cc(F)ccc3Cl)C4)s2)n1 next
a: 438

q: Then O=C(O)Cn1nnc(-c2cc(N3CC4CN(c5cc(F)ccc5Cl)CC4C3)no2)n1 (stereo not drawn) ?
a: 198

====

# tested_target: Acyl-CoA (8-3)-desaturase (Homo sapiens, UniProt O60427)
# Sequence (O60427 whole entry): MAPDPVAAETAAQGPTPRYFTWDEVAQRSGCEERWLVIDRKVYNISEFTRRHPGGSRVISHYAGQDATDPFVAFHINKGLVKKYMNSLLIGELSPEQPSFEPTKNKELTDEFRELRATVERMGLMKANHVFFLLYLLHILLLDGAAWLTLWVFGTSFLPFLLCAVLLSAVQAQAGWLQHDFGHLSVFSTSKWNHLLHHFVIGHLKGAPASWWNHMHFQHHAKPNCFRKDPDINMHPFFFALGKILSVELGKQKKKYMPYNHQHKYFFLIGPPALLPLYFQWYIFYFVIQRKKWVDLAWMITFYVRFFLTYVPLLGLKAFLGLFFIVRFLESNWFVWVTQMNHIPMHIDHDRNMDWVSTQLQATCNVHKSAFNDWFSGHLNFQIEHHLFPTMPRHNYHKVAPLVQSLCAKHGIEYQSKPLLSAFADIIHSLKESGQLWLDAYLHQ
# protocol_notes: Inhibition of human delta-5 desaturase activity in human HepG2 cells using [1-14C]-stearic acid tracer
test_readout: IC50

q: # query: IC50 of entry O=C(O)Cn1nnc(-c2cc(N3CC4CN(c5cc(F)ccc5Cl)CC4C3)no2)n1 (stereo unspecified)
a: > 80 µM

====

# protocol_notes: Drug level in harderian gland of C57BL/6 mouse at 10 mg/kg, po measured 6 hrs post dosing
# Type: ADME, organism-based, C57BL6
# Design: dose 10 mg/kg, route oral
# condition_summary: read-out: Drug uptake
test_readout: concentration at 6 h
# answer = value followed by unit

q: # concentration at 6 h lookup, item O=C(O)Cn1nnc(-c2cnc(N3CCN(c4cc(F)ccc4Cl)CC3)s2)n1
a: 50 nM
